System: DU-145
measurementProtocol: NCI tumour cell line growth inhibition, 48 h
The source made the active and inactive calls. No stated cut-off is given here; in the data, active = GI50 up to about 1.1 µM and inactive = higher.
assayEndpoint: GI50

> print(dat)
                                   molecule        endpointresult
1  COc1ccc(-c2cc(-c3ccccc3)n(C3OC(COC(C)=O)C(OC(C)=O)C(OC(C)=O)C3OC(C)=O)c(=S)c2C#N)cc1 (stereo not given)    11.7 µM (inactive)
2  COc1ccc(/C=C2\N/C(=N\N=C/C(O)C(O)C(O)C(O)CO)NC2=O)cc1 (stereo not given)    30.4 µM (inactive)
3  COc1ccc2c(c1)/C(=C\c1c(Cl)nc3sc(C)cn13)C(=O)N2    5.74 µM (inactive)
4  COc1ccc(-c2c(C#N)c(N)nc(Sc3ccccc3N)c2C#N)cc1  > 47.6 µM (inactive)
5  Cc1ccc(S(=O)(=O)Oc2nc3nc4ccccc4nc3nc2OS(=O)(=O)c2ccc(C)cc2)cc1   > 100 µM (inactive)

---

System: NCI-H522
measurementProtocol: NCI tumour cell line growth inhibition, 48 h
Calls of active or inactive are those of the source. Cut-off read from the data, not from the text of the source: active = GI50 up to about 1.1 µM and inactive = higher.
Classes used: 1 (active), 0 (inactive)

> print(dat)
                                   molecule  group
1  C=CCCCCn1c2ccccc2c2c(C)c3c[n+](C)ccc3c(C)c21      1
2  COC(=O)[C@]1(C)CCC[C@@]2(C)C1CCC1=C[C@@]3(C(C)C)CC[C@]12OO3 (some centres not stated)      0
3             CCN(CC)c1cccc2c1/C(=N/O)CCCC2      0
4  CC(=O)N1c2ccccc2C23CCN(C)CC4C(C)OCC(C4CC2=O)C13 (configuration not stated)      0
5  O=c1c2cc([N+](=O)[O-])ccc2[nH]n1Cc1ccccc1Cl      0
6       Cc1ccc(C(=O)NC2CCCCC2)cc1/N=N/N(C)C      0
7  CCc1nnc(S)n1/N=C/c1ccc(-c2ccc([N+](=O)[O-])cc2)o1      0

---

Tested on: MDA-MB-435
measurementProtocol: NCI tumour cell line growth inhibition, 48 h
The source made the active and inactive calls. No stated cut-off is given here; in the data, active = GI50 up to about 1.1 µM and inactive = higher.
Measured GI50 by item
assayEndpoint: GI50

> print(dat)
                                    molecule       endpointresult
 1  CC(=O)NNc1nc(C)c(C(/C=C/c2ccc([N+](=O)[O-])cc2)=N/N)s1  > 100 µM (inactive)
 2                       CC(C)=CCC/C(C)=C/CO  > 100 µM (inactive)
 3  CC(C)C(=O)Oc1cc2c(=O)oc3c(OC(=O)C(C)C)c(OC(=O)C(C)C)cc4c(=O)oc(c1OC(=O)C(C)C)c2c34  > 100 µM (inactive)
 4         CSc1nc(O)c(C#N)c(-c2ccc(Cl)cc2)n1  > 100 µM (inactive)
 5             OC[C@H]1C[C@@H]2Cc3ccccc3N2N1  > 100 µM (inactive)
 6  CCOC(=O)Nc1sc2c(c1C#N)CC(C)CC2 (stereo not drawn)   1.32 µM (inactive)
 7  COc1cc(C(=O)OC2CC(C)=CC[C@@]3(C)CC[C@](O)(C(C)C)C23)ccc1O (stereo partly drawn)   40.5 µM (inactive)
 8                  CN(C)CCCc1c[nH]c2ccccc12  > 100 µM (inactive)
 9          O=C1/C(=C/c2ccccc2)Oc2cc(O)ccc21  > 100 µM (inactive)
10  COC(=O)c1ccccc1C1CN=NC12Cc1c(C)ccc(C)c1C2=O (stereo not drawn)  > 100 µM (inactive)
11  CC(=O)c1c2c(cc3c1CC1(Cc4cc5c(cc4C1)C(=O)CCC5)C3)CCCC2 (stereo not drawn)   2.94 µM (inactive)
12  CCOC(=O)NN(C(=O)OCC)c1ccc(/N=N/c2ccc(OC)cc2)n1C   22.7 µM (inactive)
13  Cc1ccc(S(=O)(=O)Oc2nc3nc4ccccc4nc3nc2OS(=O)(=O)c2ccc(C)cc2)cc1  > 100 µM (inactive)
14  Cc1ccc(/C=C/C(=O)c2c([O-])on[n+]2-c2ccccc2)cc1    2.3 µM (inactive)
15  CCC(C)C(=O)OCC(=O)c1ccc(-c2ccccc2)cc1 (stereo not drawn)   99.1 µM (inactive)
16  COc1ccc(-c2oc3c(OC)c(OC)c(OC)c(O)c3c(=O)c2OC)cc1OC   4.69 µM (inactive)
17  O=P1(Oc2ccccc2)N=P(c2ccccc2)(c2ccccc2)C=C(c2ccc(Cl)cc2)N1 (stereo not drawn)   4.44 µM (inactive)
18  COC(=O)[C@@]1(NC(=O)C(CC(=O)OC(C)(C)C)NC(=O)OC(C)(C)C)C[C@H]1C (stereo partly drawn)  > 100 µM (inactive)
19            COc1ccc(/C=C(/C#N)C(N)=O)cc1OC  > 100 µM (inactive)
20  CCOP(=O)(OCC)C(N)Cc1ccc(OC)c(OC)c1 (stereo not drawn)  > 100 µM (inactive)
21  FC(F)(F)c1ccccc1C1SCC2=Nc3ccccc3CN21 (stereo not drawn)   22.5 µM (inactive)
22  CCCCC1Cc2ccccc2-c2n1c1ccccc1[n+]2C (stereo not drawn)   10.3 µM (inactive)
23  CC1(C)C2CCC(CN)(C2)C1O (stereo not drawn)   65.6 µM (inactive)
